Entries and their GI50
system: NCI-H226; assay: NCI tumour cell line growth inhibition, 48 h
The source made the active and inactive calls. Cut-off read from the data, not from the text of the source: active = GI50 up to about 1.1 µM and inactive = higher.

compound	GI50
O=C1OC(=O)C2=C1C(c1cccs1)C=C(c1cccnc1)N2c1ccncc1 (configuration not stated)	21.6 µM (inactive)
O=C1OC(c2ccc(O)c(-c3ccccc3)c2)(c2ccc(O)c(-c3ccccc3)c2)c2c(Cl)c(Cl)c(Cl)c(Cl)c21	> 100 µM (inactive)
N#CC12C(=O)N3C(=NC(c4ccco4)NC3c3ccco3)C1(C#N)C(c1ccco1)NC1=C2CCCC1 (configuration not stated)	> 100 µM (inactive)
CCN(CC)c1c(-c2c(N(CC)CC)c(OC(C)=O)c3sccn3c2=O)c(=O)n2ccsc2c1OC(C)=O	44.4 µM (inactive)
CCOP1(=O)CC(C)=C(Cl)C(OC)C1 (configuration not stated)	> 100 µM (inactive)
CNC(=O)Oc1ccc(-c2cn3cc(OC(=O)NC)ccc3n2)cc1	> 100 µM (inactive)
CCOC(=O)C1=C(Nc2ccc(Cl)c(Cl)c2)OC/C1=N\NC(=O)Cc1ccccc1	> 100 µM (inactive)

* * *

test system: OVCAR-8; assay: NCI tumour cell line growth inhibition, 48 h
Active and inactive are the calls of the source. No stated cut-off is given here; in the data, active = GI50 up to about 1.1 µM and inactive = higher.
Labels: true (1) for active, false (0) for inactive

compound	group label
CC(C)(C)c1cc(C(C)(C)C)c2sc(=S)oc2c1O	false (0)
CCCCCCCCCC[C@@H](O)[C@@H]1CC[C@@H]([C@@H]2CC[C@@H]([C@@H](O)CCCCCCCCCCC(O)CC3=CC(C)OC3=O)O2)O1 (stereo partly specified)	false (0)
Cc1cc(S(=O)(=O)[N-]C(=C(C#N)C#N)[n+]2ccc(N(C)C)cc2)c(SCC(=O)O)cc1Cl	false (0)
COC(=O)c1c(C(=O)OC)c2ccc(-c3ccc(Cl)cc3)nn2c1C(=O)c1ccc([N+](=O)[O-])cc1	false (0)
O=C1OCC2OC(=O)c3cc(O)c(O)c(O)c3-c3c(O)c(O)c(O)c4c3C(=O)OC(C2OC(=O)c2cc(O)c(O)c(O)c2-c2c1cc(O)c(O)c2O)C1OC(=O)c2c-4c(O)c(O)c(O)c2[C@@H]1C(O)C(O)C(O)C(O)CO (stereo partly specified)	false (0)
COCN1C(=O)[C@@H]2CCCN2C(=O)c2ccc(N)cc21	false (0)
CC(=O)NC(C)(C)C1CC=C(C)/C(=N\O)C1 (stereo unspecified)	false (0)
C/C(CN1C(=O)c2ccccc2C1=O)=N\NS(=O)(=O)c1ccc(Br)cc1	false (0)
CCC1(c2c(F)c(F)c(N)c(F)c2F)CCC(=O)NC1=O (stereo unspecified)	false (0)
CCCCCCCCCCSC(=O)NC	false (0)
N#CC12C(=O)N3C(=NC(c4ccco4)NC3c3ccco3)C1(C#N)C(c1ccco1)NC1=C2CCCC1 (stereo unspecified)	false (0)
CC(=O)OC1CC2(O)C(CCC3(C)C(c4ccc(=O)oc4)CCC32O)C2(C)CCC(O)C=C12 (stereo unspecified)	true (1)
O=C1C[C@H]2CC3(CC[C@H]2CN1)OCCO3	false (0)
COc1ccc2c(c1)/C(=C\c1c(-c3ccccc3)nc3n1CCS3)C(=O)N2	false (0)
CN(C)CCCNC(=O)c1cc(NC(=O)c2cc(NC(=O)CCCn3c4ccccc4c4ccccc43)cn2C)cn1C	false (0)
CC(=O)N(CCN)CCN	false (0)

* * *

# reported GI50; entries follow
tested on: RPMI-8226; assay: NCI tumour cell line growth inhibition, 48 h
Activity calls are given as the source filed them. Rule as the data show it: active = GI50 up to about 1.1 µM and inactive = higher.

compound	GI50
CO/S(=N/S(=O)(=O)c1ccccc1)c1ccccc1[N+](=O)[O-] (stereo not drawn)	> 100 µM (inactive)
CCOC(=O)C(NC(=O)Nc1ccccc1F)(OC)C(F)(F)F (stereo not drawn)	> 100 µM (inactive)
OC[C@H]1CCCC1O (stereo partly drawn)	> 100 µM (inactive)
N#CC12C(=O)N3C(=NC(c4ccco4)NC3c3ccco3)C1(C#N)C(c1ccco1)NC1=C2CCCC1 (stereo not drawn)	> 100 µM (inactive)
N#CC(C#N)=Cn1c(=S)[nH]c2ccccc21	> 100 µM (inactive)
COc1ccc(-c2onc(-c3c(C)cc(C)cc3C)c2C2=NCCN2)cc1	29 µM (inactive)
O=C(CC(=O)Nc1cccc(C(=O)O)c1)Nc1cccc(C(=O)O)c1	> 100 µM (inactive)
c1ccc2c(c1)NC(C1OC3CCCN3C1C1Nc3ccccc3S1)S2 (stereo not drawn)	23 µM (inactive)
CN1CCCC2(CCCc3ccccc32)C1 (stereo not drawn)	> 100 µM (inactive)
O=C(c1ccc([N+](=O)[O-])cc1[N+](=O)[O-])N(/N=C/C=C/c1ccccc1)c1nnc(-c2ccccc2)c(-c2ccccc2)n1	20.5 µM (inactive)
O=C(O)C12CC3CC(C1)C2C=C3P(=O)(O)O (stereo not drawn)	> 100 µM (inactive)
O=C1/C(=C/c2ccc(F)cc2)CNC/C1=C\c1ccc(F)cc1	0.275 µM (active)
CC[C@@]1(O)C[C@H](OC2CC(N(C)C)C(OC3CC(O)C(OC4CC(O)C(O)C(C)O4)C(C)O3)C(C)O2)c2c(cc3c(c2O)C(=O)c2c(O)ccc(O)c2C3=O)[C@H]1C(=O)OC (stereo partly drawn)	0.011 µM (active)
CCN(CC)c1c(-c2c(N(CC)CC)c(OC(C)=O)c3sccn3c2=O)c(=O)n2ccsc2c1OC(C)=O	> 100 µM (inactive)
CCOC(=O)NC(Nc1ccc(C(=O)O)cc1)(C(F)(F)F)C(F)(F)F	> 100 µM (inactive)
COc1cc(C(=O)O)ccc1OS(=O)(=O)O	> 100 µM (inactive)
N/C(=N/c1ccc(O)cc1)S(=O)O	> 100 µM (inactive)
O=CNc1ncn[nH]1	> 100 µM (inactive)
CCOC(=O)C1(C(=O)OCC)C=C(c2ccccc2)N(C2OC(COC(C)=O)C(OC(C)=O)C(OC(C)=O)C2OC(C)=O)C1=S (stereo not drawn)	17 µM (inactive)
O=C1c2ccccc2-c2nc(/C=C/c3ccccc3)cc3c2c1nc1ccccc13	15.1 µM (inactive)
CCOC(C)O[C@H]1C(=O)OCC1(C)C (stereo partly drawn)	> 100 µM (inactive)
O=C1C(Br)=C(Br)C(=O)c2ccccc21 [2,3-Dibromo-1,4-naphthoquinone]	3.01 µM (inactive)
CCN(CC)CCNc1ccc2nnn3c4ccc(OCCN(CC)CC)cc4c(=O)c1c23	26.8 µM (inactive)
CC(=O)OCC1OC(OC2CC3C(C)(C)C(OC(C)=O)CC[C@]3(C)C3CCC45CC4(CCC5[C@@H](C)C[C@H](O)C(O)C(C)(C)O)[C@]23C)C(O)C(O)C1O (stereo partly drawn)	5.18 µM (inactive)
O=C(c1ccc(Cl)cc1)c1ccc(OCCCOc2ccc(C(=O)c3ccc(Cl)cc3)cc2Cl)c(Cl)c1	> 100 µM (inactive)
Cc1nc2c(=O)[nH]c(=O)n(C)c2[nH]c1=O.c1ccncc1	> 100 µM (inactive)
Cc1cc(C)nc(NS(=O)(=O)c2ccc(NC(=O)c3cccc4c(NNc5ccc(S(=O)(=O)N=C(N)N)cc5)c5ccccc5nc34)cc2)n1	> 50 µM (inactive)
Cc1ccc2c(=O)cc(Cc3cccs3)[nH]c2n1	> 100 µM (inactive)
C=CC[C@@]1(C(=O)OC)[C@H](Sc2ccccc2)C1(C)C	10.7 µM (inactive)
OCC1OC(NC(=S)NCSCCC(F)(F)C(F)(F)C(F)(F)C(F)(F)C(F)(F)C(F)(F)F)C(O)C(O)C1O (stereo not drawn)	63.8 µM (inactive)
COC1OC(COC(=O)c2cc(O)c(O)c(O)c2)C(OC(=O)c2cc(O)c(O)c(O)c2)C(OC(=O)c2cc(O)c(O)c(O)c2)C1OC(=O)c1cc(O)c(O)c(O)c1 (stereo not drawn)	28.3 µM (inactive)
O=C1[C@H]2ON(c3ccccc3)C(c3ccc(Cl)cc3Cl)[C@H]2C(=O)N1c1ccc(Cc2ccc(N3C(=O)[C@@H]4ON(c5ccccc5)C(c5ccc(Cl)cc5Cl)[C@@H]4C3=O)cc2)cc1 (stereo partly drawn)	> 100 µM (inactive)
C=C1CCN2CC[C@@H](OC(=O)/C(C)=C\C)[C@@H]12	> 100 µM (inactive)
Clc1ccc(-c2cc(-c3nc4ccccc4[nH]3)no2)cc1	24.3 µM (inactive)
CCOP(=O)(OCC)C(Nc1ccc(Cl)cc1)c1ccc(F)cc1 (stereo not drawn)	22.5 µM (inactive)
CC(=O)Nc1nnc(S(C)(=O)=O)s1	> 100 µM (inactive)
COc1cc(C2c3cc4c(cc3OC(N3CCCCC3)C2C)OCO4)cc(OC)c1O (stereo not drawn)	9.35 µM (inactive)
CC(=O)C(=NNc1ccc(-n2c(C)nc3ccccc3c2=O)cc1)C(C)=O	30 µM (inactive)

* * *

In this section, each of the compounds is paired with its reported GI50.
system: SF-268; experiment: NCI tumour cell line growth inhibition, 48 h
Active and inactive are the calls of the source. No stated cut-off is given here; in the data, active = GI50 up to about 1.1 µM and inactive = higher.

compound	GI50
CN(C)CC1CC/C(=C\c2ccc(O)cc2)C1=O (centres undefined)	9.62 µM (inactive)
C[n+]1c(/C=C/c2ccc(/C=N/NC(=O)c3ccc(C(=O)N/N=C/c4ccc(/C=C/c5cn6ccccc6[n+]5C)cc4)cc3)cc2)cn2ccccc21	> 100 µM (inactive)
CSc1c(C#N)c2n(c3ccccc13)c1ccccc1[n+]2C	28.5 µM (inactive)
CCOC(=O)c1ccc(NC(=O)O/N=C(/Cl)C(C)C)cc1	16.5 µM (inactive)

Value source: ChEMBL document CHEMBL1201862
